Where these numbers come from: ChEMBL document CHEMBL1145498

Parameter IC50: see the listing below.
- Test Description: Inhibition of NS3-associated HCV viral helicase activity using RNA substrate
- Parameters: species or system Hepacivirus hominis
Express your answer as a number followed by its unit.

record_smiles=Brc1c(Br)c(Br)c2[nH]nnc2c1Br endpoint_result="60 µM"

Query :: Query: IC50; subject: N#C/C(=C(/N)Sc1ccc(N)cc1)c1ccccc1C(F)(F)F
Result :: 0.18 µM

----------
// Calcium/calmodulin-dependent protein kinase type IV (Homo sapiens) (UniProt Q16566) ΔTm records
Could you give me the number in °C? Just the number is fine.

Below are worked cases with known answers.
compound=O=C(O)/C=C/c1cc(CO)ccc1CO system_tested="Calcium/calmodulin-dependent protein kinase type IV (Homo sapiens) (UniProt Q16566)" endpoint_result=0.5
compound=CCN1/C(=C/C(C)=O)Sc2ccc(OC)cc21 system_tested="Calcium/calmodulin-dependent protein kinase type IV (Homo sapiens) (UniProt Q16566)" endpoint_result=0.8
compound="C[S+]([O-])c1ccc(CSc2nc(-c3ccc(F)cc3)c(-c3ccncc3)[nH]2)cc1 (stereo not given)" system_tested="Calcium/calmodulin-dependent protein kinase type IV (Homo sapiens) (UniProt Q16566)" endpoint_result=0
compound="CCN(CC)CCNC(=O)c1c(C)[nH]c(/C=C2\\C(=O)Nc3ccc(Cl)cc32)c1C [SU-11652]" system_tested="Calcium/calmodulin-dependent protein kinase type IV (Homo sapiens) (UniProt Q16566)" endpoint_result=3.3

Attention now turns to another entry.
Query :: // lookup ΔTm for Cn1cc(C2=C(c3cn(CCCSC(=N)N)c4ccccc34)C(=O)NC2=O)c2ccccc21
Result :: 3.2
